# conditions: in THF, 308.15 K
endpoint: solubility (mole fraction)
Give the figure only, with no unit attached.

INPUT: For the compound shown here, CCOC(=O)CCC(=O)O[C@H]1[C@H](O[C@@H]2[C@@H](C)[C@H](O[C@H]3C[C@@](C)(OC)[C@@H](O)[C@H](C)O3)[C@@H](C)C(=O)O[C@H](CC)[C@@](C)(O)[C@H](O)[C@@H](C)C(=O)[C@H](C)C[C@@]2(C)O)O[C@H](C)C[C@@H]1N(C)C , give the reported solubility (mole fraction).
OUTPUT: 0.0684

----------
# conditions: in acetone, 313.15 K
endpoint: solubility (mole fraction)
Returns: the value as a bare number; no unit string appended.

INPUT: What solubility (mole fraction) value was documented for this compound, CCOC(=O)CCC(=O)O[C@H]1[C@H](O[C@@H]2[C@@H](C)[C@H](O[C@H]3C[C@@](C)(OC)[C@@H](O)[C@H](C)O3)[C@@H](C)C(=O)O[C@H](CC)[C@@](C)(O)[C@H](O)[C@@H](C)C(=O)[C@H](C)C[C@@]2(C)O)O[C@H](C)C[C@@H]1N(C)C ?
OUTPUT: 0.0425

----------
# conditions: in acetone, 293.15 K
endpoint: solubility (mole fraction)
Number only, no unit.

INPUT: What value of measured solubility (mole fraction) is listed for CCOC(=O)CCC(=O)O[C@H]1[C@H](O[C@@H]2[C@@H](C)[C@H](O[C@H]3C[C@@](C)(OC)[C@@H](O)[C@H](C)O3)[C@@H](C)C(=O)O[C@H](CC)[C@@](C)(O)[C@H](O)[C@@H](C)C(=O)[C@H](C)C[C@@]2(C)O)O[C@H](C)C[C@@H]1N(C)C ?
OUTPUT: 0.0175

----------
# conditions: in acetone, 323.15 K
endpoint: solubility (mole fraction)
Just the number, please.

INPUT: Value lookup for solubility (mole fraction); key = CCOC(=O)CCC(=O)O[C@H]1[C@H](O[C@@H]2[C@@H](C)[C@H](O[C@H]3C[C@@](C)(OC)[C@@H](O)[C@H](C)O3)[C@@H](C)C(=O)O[C@H](CC)[C@@](C)(O)[C@H](O)[C@@H](C)C(=O)[C@H](C)C[C@@]2(C)O)O[C@H](C)C[C@@H]1N(C)C
OUTPUT: 0.0614

----------
# conditions: in n-hexane, 293.15 K
endpoint: solubility (mole fraction)

INPUT: Look at this compound and give its reported solubility (mole fraction). CCOC(=O)CCC(=O)O[C@H]1[C@H](O[C@@H]2[C@@H](C)[C@H](O[C@H]3C[C@@](C)(OC)[C@@H](O)[C@H](C)O3)[C@@H](C)C(=O)O[C@H](CC)[C@@](C)(O)[C@H](O)[C@@H](C)C(=O)[C@H](C)C[C@@]2(C)O)O[C@H](C)C[C@@H]1N(C)C
OUTPUT: 0.000129

----------
# conditions: in THF, 293.15 K
endpoint: solubility (mole fraction)
Simply state the number, no unit and no words.

INPUT: Which value of solubility (mole fraction) has been reported for CCOC(=O)CCC(=O)O[C@H]1[C@H](O[C@@H]2[C@@H](C)[C@H](O[C@H]3C[C@@](C)(OC)[C@@H](O)[C@H](C)O3)[C@@H](C)C(=O)O[C@H](CC)[C@@](C)(O)[C@H](O)[C@@H](C)C(=O)[C@H](C)C[C@@]2(C)O)O[C@H](C)C[C@@H]1N(C)C in the records?
OUTPUT: 0.0416

----------
# conditions: in n-hexane, 303.15 K
endpoint: solubility (mole fraction)
No unit in the answer, only the number.

INPUT: Given the entry CCOC(=O)CCC(=O)O[C@H]1[C@H](O[C@@H]2[C@@H](C)[C@H](O[C@H]3C[C@@](C)(OC)[C@@H](O)[C@H](C)O3)[C@@H](C)C(=O)O[C@H](CC)[C@@](C)(O)[C@H](O)[C@@H](C)C(=O)[C@H](C)C[C@@]2(C)O)O[C@H](C)C[C@@H]1N(C)C , report its measured solubility (mole fraction).
OUTPUT: 0.000213

----------
# conditions: in ethanol, 293.15 K
endpoint: solubility (mole fraction)
The response must contain the number and no unit.

INPUT: For the compound shown here, CCOC(=O)CCC(=O)O[C@H]1[C@H](O[C@@H]2[C@@H](C)[C@H](O[C@H]3C[C@@](C)(OC)[C@@H](O)[C@H](C)O3)[C@@H](C)C(=O)O[C@H](CC)[C@@](C)(O)[C@H](O)[C@@H](C)C(=O)[C@H](C)C[C@@]2(C)O)O[C@H](C)C[C@@H]1N(C)C , give the reported solubility (mole fraction).
OUTPUT: 0.00966

----------
# conditions: in THF, 318.15 K
endpoint: solubility (mole fraction)
Respond using a number only.

INPUT: Any idea what its solubility (mole fraction) is? The compound is CCOC(=O)CCC(=O)O[C@H]1[C@H](O[C@@H]2[C@@H](C)[C@H](O[C@H]3C[C@@](C)(OC)[C@@H](O)[C@H](C)O3)[C@@H](C)C(=O)O[C@H](CC)[C@@](C)(O)[C@H](O)[C@@H](C)C(=O)[C@H](C)C[C@@]2(C)O)O[C@H](C)C[C@@H]1N(C)C
OUTPUT: 0.0977

----------
# conditions: in THF, 298.15 K
endpoint: solubility (mole fraction)
Note: the reply should be a number with no unit written.

INPUT: Look up solubility (mole fraction) for this molecule: CCOC(=O)CCC(=O)O[C@H]1[C@H](O[C@@H]2[C@@H](C)[C@H](O[C@H]3C[C@@](C)(OC)[C@@H](O)[C@H](C)O3)[C@@H](C)C(=O)O[C@H](CC)[C@@](C)(O)[C@H](O)[C@@H](C)C(=O)[C@H](C)C[C@@]2(C)O)O[C@H](C)C[C@@H]1N(C)C
OUTPUT: 0.0491

----------
# conditions: in THF, 288.15 K
endpoint: solubility (mole fraction)
Enter a number only.

INPUT: Reported solubility (mole fraction), molecule CCOC(=O)CCC(=O)O[C@H]1[C@H](O[C@@H]2[C@@H](C)[C@H](O[C@H]3C[C@@](C)(OC)[C@@H](O)[C@H](C)O3)[C@@H](C)C(=O)O[C@H](CC)[C@@](C)(O)[C@H](O)[C@@H](C)C(=O)[C@H](C)C[C@@]2(C)O)O[C@H](C)C[C@@H]1N(C)C : ____
OUTPUT: 0.036

----------
# conditions: in acetonitrile, 293.15 K
endpoint: solubility (mole fraction)
The response must contain the number and no unit.

INPUT: # input compound: CCOC(=O)CCC(=O)O[C@H]1[C@H](O[C@@H]2[C@@H](C)[C@H](O[C@H]3C[C@@](C)(OC)[C@@H](O)[C@H](C)O3)[C@@H](C)C(=O)O[C@H](CC)[C@@](C)(O)[C@H](O)[C@@H](C)C(=O)[C@H](C)C[C@@]2(C)O)O[C@H](C)C[C@@H]1N(C)C ; wanted: its solubility (mole fraction)
OUTPUT: 0.00252

----------
# conditions: in n-hexane, 288.15 K
endpoint: solubility (mole fraction)
Number only, no unit.

INPUT: Please give the measured solubility (mole fraction) for this molecule: CCOC(=O)CCC(=O)O[C@H]1[C@H](O[C@@H]2[C@@H](C)[C@H](O[C@H]3C[C@@](C)(OC)[C@@H](O)[C@H](C)O3)[C@@H](C)C(=O)O[C@H](CC)[C@@](C)(O)[C@H](O)[C@@H](C)C(=O)[C@H](C)C[C@@]2(C)O)O[C@H](C)C[C@@H]1N(C)C
OUTPUT: 9.26e-05

----------
# conditions: in isopropanol, 323.15 K
endpoint: solubility (mole fraction)

INPUT: Endpoint output: solubility (mole fraction) of CCOC(=O)CCC(=O)O[C@H]1[C@H](O[C@@H]2[C@@H](C)[C@H](O[C@H]3C[C@@](C)(OC)[C@@H](O)[C@H](C)O3)[C@@H](C)C(=O)O[C@H](CC)[C@@](C)(O)[C@H](O)[C@@H](C)C(=O)[C@H](C)C[C@@]2(C)O)O[C@H](C)C[C@@H]1N(C)C . Value?
OUTPUT: 0.0556

----------
# conditions: in isopropanol, 308.15 K
endpoint: solubility (mole fraction)
The reply should be a number, written without any unit.

INPUT: Look up solubility (mole fraction) for this compound: CCOC(=O)CCC(=O)O[C@H]1[C@H](O[C@@H]2[C@@H](C)[C@H](O[C@H]3C[C@@](C)(OC)[C@@H](O)[C@H](C)O3)[C@@H](C)C(=O)O[C@H](CC)[C@@](C)(O)[C@H](O)[C@@H](C)C(=O)[C@H](C)C[C@@]2(C)O)O[C@H](C)C[C@@H]1N(C)C
OUTPUT: 0.0249

----------
# conditions: in acetonitrile, 318.15 K
endpoint: solubility (mole fraction)

INPUT: So what's the measured solubility (mole fraction) for this one? CCOC(=O)CCC(=O)O[C@H]1[C@H](O[C@@H]2[C@@H](C)[C@H](O[C@H]3C[C@@](C)(OC)[C@@H](O)[C@H](C)O3)[C@@H](C)C(=O)O[C@H](CC)[C@@](C)(O)[C@H](O)[C@@H](C)C(=O)[C@H](C)C[C@@]2(C)O)O[C@H](C)C[C@@H]1N(C)C
OUTPUT: 0.00906

From: BigSolDB 2.1
